Listed compounds paired with reported relative viability
System: G401
Test: relative viability vs DMSO control (72 h) (fraction); higher = more viable cells
Settings: 0.00051 µM
The answer should be written as a number, with no unit following it.

Would you please look over these solved cases?
[
  {
    "compound": "C[C@]1(O)C[C@@H](c2nc(-c3ccc4ccc(-c5ccccc5)nc4c3)c3c(N)nccn32)C1",
    "relative viability": 0.974
  },
  {
    "compound": "CN1CCC(COc2cnc(-c3cccc(Cn4nc(-c5cccc(C#N)c5)ccc4=O)c3)nc2)CC1",
    "relative viability": 1.02
  },
  {
    "compound": "CC(C)NC(=O)C1CCC(n2c(NC(=O)c3ccc(F)cc3)nc3ccc(CN4CCC(C(C)(C)O)CC4)cc32)CC1 (stereo not given)",
    "relative viability": 0.997
  },
  {
    "compound": "Cc1nc(NC(=O)N2CCC[C@H]2C(N)=O)sc1-c1ccnc(C(C)(C)C(F)(F)F)c1",
    "relative viability": 1.01
  }
]

Next up:
Bench note, G401: CCCS(=O)(=O)Nc1ccc(F)c(C(=O)c2c[nH]c3ncc(-c4ccc(Cl)cc4)cc23)c1F , relative viability reads 1.02
